IC50 for yeast HSP90 (Saccharomyces cerevisiae) - collated from the literature.

// worked examples, IC50 included
compound=NC(=O)c1ccc(NC(=O)c2c[nH]nc2-c2cc(Cl)c(O)cc2O)cc1 measured_target="yeast HSP90 (Saccharomyces cerevisiae)" result="< 50 µM"
compound="O=C(NC1c2ccccc2-c2c(-c3nc4ccccn4n3)cccc21)c1ccnc2[nH]ccc12 (racemic)" measured_target="yeast HSP90 (Saccharomyces cerevisiae)" result="1 to 10 µM"
compound=Cc1ccccc1CCc1cc(-c2n[nH]cc2N2CCNCC2)c(O)cc1O measured_target="yeast HSP90 (Saccharomyces cerevisiae)" result="< 50 µM"
compound=NNC(=O)CN1CCN(c2c[nH]nc2-c2cc(Cl)c(O)cc2O)CC1 measured_target="yeast HSP90 (Saccharomyces cerevisiae)" result="> 50 µM"
compound=Fc1nc(N2CCN(c3ccccn3)CC2)c2nc[nH]c2n1 measured_target="yeast HSP90 (Saccharomyces cerevisiae)" result="1 to 10 µM"

What value of IC50 has been recorded for this entry: `OCCCN1CCN(c2c[nH]nc2-c2cc(Cl)c(O)cc2O)CC1`
< 50 µM

Another compound: `CS(=O)(=O)c1ccc(CNC(=O)c2c[nH]nc2-c2cc(Cl)c(O)cc2O)cc1`
< 50 µM

Another compound: `Cc1nn(-c2ccc(C(N)=O)c(NC3CC(C)(C)NC(C)(C)C3)c2)c2cccc(-c3cnc4ccccc4c3)c12`
< 1 µM

* * *

pIC50 for yeast HSP90 (Saccharomyces cerevisiae) - collated from the literature.
pIC50: −log10 of the molar value.

compound=COc1cccc(CNC(=O)c2c[nH]nc2-c2cc(Cl)c(O)cc2O)c1 result="> 4.30"
compound=Cc1nn(-c2ccc(C(N)=O)c(N[C@H]3CC[C@H](OC(=O)CN)CC3)c2)c2cccc(-c3cnc4ccccc4c3)c12 result="> 6.00"
compound=FC(F)(F)c1cccnc1N1CCN(c2nc(Cl)nc3[nH]cnc23)CC1 result="5.00 to 6.00"

What value of pIC50 has been recorded for this entry: CC(c1ccccc1)N1CCN(c2c[nH]nc2-c2cc(Cl)c(O)cc2O)CC1 (centres unmarked)
> 4.30

Another compound: `Oc1cc(O)c(-c2n[nH]cc2N2CCNCC2)cc1CCc1cccc(F)c1`
> 4.30

Another compound: `Cc1nn(-c2ccc(C(N)=O)cc2)c2cccc(-c3cnc4ccccc4c3)c12`
5.00 to 6.00

Another compound: `COCCN1CCN(c2c[nH]nc2-c2cc(Cl)c(O)cc2O)CC1`
> 4.30

Another compound: `Cc1nn(-c2ccc(C(N)=O)c(NC3CCOCC3)c2)c2cccc(-c3cnc4ccccc4c3)c12`
> 6.00

* * *

IC50 for yeast HSP90 (Saccharomyces cerevisiae, UniProt P02829) - collated from the literature.

// worked examples, IC50 included
compound=O=C(O)c1ccc(CN2CCN(c3c[nH]nc3-c3cc(Cl)c(O)cc3O)CC2)o1 result="< 50 µM"
compound="O=C(NC1c2ccccc2-c2c(-c3cc4ccccc4o3)cccc21)c1ccnc2[nH]ccc12 (racemic)" result="1 to 10 µM"
compound=Clc1cccc(N2CCN(c3nc(Cl)nc4[nH]cnc34)CC2)c1 result="10 to 100 µM"
compound="O=C(NC1c2ccccc2-c2c(-c3cnc4ccccc4c3)cccc21)c1ncnc2[nH]ccc12 (racemic)" result="< 1 µM"

Tell me reported IC50 for `Cc1ccc(C)c(CCc2cc(-c3n[nH]cc3N3CCNCC3)c(O)cc2O)c1` , tested with yeast HSP90 (Saccharomyces cerevisiae, UniProt P02829).
< 50 µM

Another compound: `N#CCN1CCN(c2c[nH]nc2-c2cc(Cl)c(O)cc2O)CC1`
> 50 µM

Another compound: `O=C(NCc1ccco1)c1c[nH]nc1-c1cc(Cl)c(O)cc1O`
< 50 µM
